The measured values listed here are drawn from ChEMBL document CHEMBL3734680.

# System: carboxyesterase
# experiment.notes: Half life of compound assessed as carboxyesterase (unknown origin)-mediated drug degradation at 0.655 x 10^3 uM by HPLC analysis
# Format: ADME
# protocol.conditions: human
assay.readout: half-life (min)

>>> value_measured("CC(=O)Oc1ccc(C[C@@H](OC(C)=O)C(=O)OC(C)c2nc(C)c(C)nc2C)cc1OC(C)=O (some centres undefined)")
10.6
>>> value_measured("CC(=O)Oc1ccc(CC(OC(C)=O)C(=O)OCc2nc(C)c(C)nc2C)cc1OC(C)=O (centres undefined)")
10.3

(A) C=CCC(OC(=O)[C@@H](Cc1ccc(OC(C)=O)c(OC(C)=O)c1)OC(C)=O)c1nc(C)c(C)nc1C (some centres undefined)
(B) C=CCC(CC=C)(OC(=O)[C@@H](Cc1ccc(OC(C)=O)c(OC(C)=O)c1)OC(C)=O)c1nc(C)c(C)nc1C
[ask] Lowest half-life? choose A or B Your answer should be the label attached to the chosen record.
[reply] A
